# Measured on: human P2X3 receptor (Homo sapiens (Human), UniProt P56373)
# Sequence (P56373 whole entry): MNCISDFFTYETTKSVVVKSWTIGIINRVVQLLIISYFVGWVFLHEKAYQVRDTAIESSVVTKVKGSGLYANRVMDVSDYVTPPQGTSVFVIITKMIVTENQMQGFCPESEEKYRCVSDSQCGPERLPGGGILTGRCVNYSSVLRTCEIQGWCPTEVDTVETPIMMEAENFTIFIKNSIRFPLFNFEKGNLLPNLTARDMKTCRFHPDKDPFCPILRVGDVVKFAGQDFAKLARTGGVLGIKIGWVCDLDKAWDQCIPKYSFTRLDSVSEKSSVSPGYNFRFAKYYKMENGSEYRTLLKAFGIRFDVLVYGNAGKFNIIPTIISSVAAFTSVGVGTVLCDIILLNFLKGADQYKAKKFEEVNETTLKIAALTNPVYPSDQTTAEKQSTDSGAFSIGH
# Assay method text: Evaluation of human P2X3 receptor inhibitory activity (Fluo-3 calcium fluorescence, FDSS 3000, ATP stimulation)
# Type: cell-based
# Particulars: C6BU-1 cells stably expressing human P2X3 receptor
Property measured: IC50 (µM)

1) COC(=O)[C@H](C)[C@H](C)n1c(=O)[nH]/c(=N\c2ccc3nc(C)ccc3c2)n(Cc2ccc(Cl)cc2)c1=O ... 0.02
2) NC(=O)Cn1c(=O)[nH]/c(=N\c2ccc(OC3CCC3)cc2)n(Cc2ccc(Cl)cc2)c1=O ... 0.025
3) CC(C)Oc1ccc(/N=c2\[nH]c(=O)n(C(C)(C)CC(=O)O)c(=O)n2Cc2ccc(Cl)cc2)cc1Cl ... 0.027
4) Cc1ccc(Cn2c(=O)n([C@H](C)[C@H](C)C(=O)O)c(=O)[nH]/c2=N\c2ccc(OC(C)C)c(Cl)c2)cc1 ... 0.014

----------
# Measured on: human P2X3 receptor (Homo sapiens (Human))
# Assay method text: Evaluation of human P2X3 receptor inhibitory activity (Fluo-3 calcium fluorescence, FDSS 3000, ATP stimulation)
# Type: cell-based
# Particulars: human P2X3 receptor, Test Example 1
Overview of recorded IC50 for various compounds
Property measured: IC50 (nM)

1. CCn1c(=O)[nH]/c(=N\c2ccc(Oc3cccc(Cl)n3)cc2)n(Cc2ccc(Cl)cc2)c1=O ... 10
2. CCn1c(=O)[nH]/c(=N\c2ccc(Oc3ccc(C#N)cn3)cc2)n(Cc2ccc(Cl)cc2)c1=O ... 2
3. NCCn1c(=O)[nH]/c(=N\c2ccc(Oc3ccon3)cc2)n(Cc2ccc(Cl)cc2)c1=O ... 169
4. Cc1ccc(Cn2c(=O)n(C)c(=O)[nH]/c2=N\c2ccc(Oc3cc(C(=O)O)ncn3)cc2)cc1 ... 13
5. CCn1c(=O)[nH]/c(=N\c2ccc(Oc3cccc(C(=O)O)n3)cc2)n(Cc2ncc(Cl)cn2)c1=O ... 216
6. CCn1c(=O)[nH]/c(=N\c2ccc(Oc3nccc(C(=O)O)n3)cc2)n(Cc2ccc(C)cc2)c1=O ... 16
7. NC(=O)Cn1c(=O)[nH]/c(=N\c2ccc(Oc3nccs3)cc2)n(Cc2ccc(Cl)cc2)c1=O ... 17

----------
# Measured on: human P2X3 receptor (Homo sapiens (Human), UniProt P56373)
# Assay method text: Evaluation of human P2X3 receptor inhibitory activity (Fluo-3 calcium fluorescence, FDSS 3000, ATP stimulation);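 further: stimulus was 50 nM ATP with fluorescence followed for 3 min, and the response per well was peak post-ATP fluorescence divided by the reading at measurement start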
# Type: cell-based
# Particulars: C6BU-1 cells stably expressing human P2X3 receptor
pIC50: −log10 of the molar value.
Attribute: pIC50
Property measured: pIC50

1) CCOC(=O)CCn1c(=O)[nH]/c(=N\c2ccc(OC(C)C)c(COC)c2)n(Cc2ccc(C)cc2)c1=O [Compound I-1421] ... 6.05
2) CCn1c(=O)[nH]/c(=N\c2ccc(OC3CNC=C(C(=O)OC)C3)cc2)n(Cc2ccc(Cl)cc2)c1=O (stereo not drawn) [Compound I-2138] ... 6.77
3) O=C(O)Cn1c(=O)[nH]/c(=N\c2ccc(Oc3ccnc(O)c3)cc2)n(Cc2ccc(Cl)cc2)c1=O [Compound I-1932] ... 7.02
4) Cc1ccc(/N=c2\[nH]c(=O)n(C[C@H](C)C(=O)O)c(=O)n2Cc2ccc(Cl)cc2)cc1Cl [Compound I-0696] ... 6.89
5) CCn1c(=O)[nH]/c(=N\c2ccc(Oc3cncc(C(=O)O)c3)cc2)n(Cc2ccc(Cl)cn2)c1=O [Compound I-2164] ... 6.90
6) COC(=O)[C@@H](C)Cn1c(=O)[nH]/c(=N\c2ccc(CC(C)C)c(Cl)c2)n(Cc2ccc(C)nc2)c1=O [Compound I-1464] ... 7.15
7) COC(=O)[C@@H](C)Cn1c(=O)[nH]/c(=N\c2ccc(OC(C)C)c(F)c2)n(Cc2ccc(F)cc2)c1=O [Compound I-0617] ... 7.17
8) O=c1[nH]/c(=N\c2ccc3nc(C4CC4)sc3c2)n(Cc2ccc(Cl)cc2)c(=O)n1CCO [Compound I-2026] ... 7.66
9) CCOc1ccc(/N=c2\[nH]c(=O)n(C[C@H](C)C(=O)OC)c(=O)n2Cc2ccc(C)cc2)cc1Cl [Compound I-0678] ... 8.10
10) Cc1cc(Oc2ccc(/N=c3\[nH]c(=O)n(C[C@H](O)CO)c(=O)n3Cc3ccc(Cl)cc3)cc2)ccn1 [Compound I-1987] ... 8.15
11) CCn1c(=O)[nH]/c(=N\c2ccc(Oc3ccc(C(=O)OC)cc3)cc2)n(Cc2ccc(C)cc2)c1=O [Compound I-2029] ... 8.40
12) O=c1[nH]/c(=N\c2ccc3nc(C(F)(F)F)sc3c2)n(Cc2ccc(Cl)cc2)c(=O)n1C[C@H](O)CO [Compound I-2168] ... 7.24

Origin of measurements: patent US9718790B2
